Reference source: patent US20210253718A1

# Assayed target: T1, FZD6 CRD (Homo sapiens, UniProt O60353)
# T1 construct: S20-P146; GPI anchor signal (C); expressed in transfected cells; host or cells: CHO cells, lentiviral pLenti-puro
# T1 sequence (O60353 20-146): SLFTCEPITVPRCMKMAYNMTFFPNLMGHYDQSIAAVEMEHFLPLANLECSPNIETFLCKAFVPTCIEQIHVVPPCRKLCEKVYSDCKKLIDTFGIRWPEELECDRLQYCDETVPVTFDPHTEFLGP
# Protocol summary: Immunofluorescence of anti-FZD5 Fab binding to CHO cells overexpressing Frizzled CRD
# Set-up: key: −: no binding; +: very weak binder; ++: weak binder; +++: good binder; ++++: very good binder
Observed property: Immunofluorescence binding, Frizzled CRD overexpressed on CHO cells: FZD6

# Molecule, Value
measured = [
    ("Fab-2933: anti-FZD5 Fab with antibody variable region Fv-2933; CDR SEQ ID NOs: 35, 36, 72, 109, 148, 177 (antibody, V domains shown) VH: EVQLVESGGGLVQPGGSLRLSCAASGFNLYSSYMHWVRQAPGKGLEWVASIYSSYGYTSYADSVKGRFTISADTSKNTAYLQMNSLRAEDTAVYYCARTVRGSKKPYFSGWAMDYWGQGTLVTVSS VL: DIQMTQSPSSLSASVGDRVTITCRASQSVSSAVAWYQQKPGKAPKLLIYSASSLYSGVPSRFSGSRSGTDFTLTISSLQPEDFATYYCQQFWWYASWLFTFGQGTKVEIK", "−"),
    ("Fab-2928: anti-FZD5 Fab with antibody variable region Fv-2928; CDR SEQ ID NOs: 35, 36, 67, 105, 143, 175 (antibody, V domains shown) VH: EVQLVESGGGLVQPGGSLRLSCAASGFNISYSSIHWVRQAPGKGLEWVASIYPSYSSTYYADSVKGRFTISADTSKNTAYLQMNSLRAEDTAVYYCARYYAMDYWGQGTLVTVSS VL: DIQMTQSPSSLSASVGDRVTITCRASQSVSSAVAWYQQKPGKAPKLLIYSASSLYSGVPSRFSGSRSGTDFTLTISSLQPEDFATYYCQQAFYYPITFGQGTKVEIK", "−"),
]
